Cited source for all entries: patent US8114406B2

- Tested on: chick chorioallantoic membrane (CAM) angiogenesis
- Measurement Description: Chick chorioallantoic membrane (CAM) angiogenesis assay
- Assay type: in vivo, chicken
- Settings: 10 μM peptide; relative to control gels; mean ± SD
- Protocol: Fertilized Leghorn chicken eggs were obtained from Ramona Duck farm (Westminster, Calif.). At day 3 of development, the embryos were placed on 100 mm petri dishes. Assays were performed as previously described (Iruela-Arispe et al., 1999). […] Peptides were filtered on Centricon P100 prior to their analysis on the CAM assays to eliminate traces of endotoxin. Pellets were applied to the outer ⅓ of the CAM, and the assay was performed for 24 h. […]
Where no end group is shown, it is not given here.
Response key: true (1) means Angiogenic response (% inhibition) >= 20%; false (0) means Angiogenic response (% inhibition) < 20%.

1) ri-FQGVLQNVRFVF [Peptide 709]
true (1)
2) FQGVLQNVAFVF [Peptide 690]
false (0)
3) FAGVLQNVRFVF [Peptide 696]
false (0)
4) FQGVLQNVRFVF [Peptide 678]
false (0)
5) FQGVLQAVRFVF [Peptide 686]
false (0)
